# system: human MCH-1 receptor (Homo sapiens)
# Construct: expressed in transfected cells
# assay_details: Ca2+ mobilization experiment for the MCH-1 receptor (FLIPR), inhibition of MCH-induced Ca2+ mobilization
# Assay type: cell-based
# condition_parameters: CHO cells stably expressing human MCH-1 receptor, inhibition of MCH-induced Ca2+ response, read-out: MCH-1 pIC50 (converted)
reported_endpoint: IC50 (µM)

Data point: `COc1cc(-n2ccnc(NCCc3ccccc3Cl)c2=O)ccc1OCCN1CCCC1` ; IC50 = 0.1

I. O=c1c(NCCOc2ccccc2Cl)nccn1-c1ccc(OCCN2CCCC2)cc1
II. CCCC(=O)N(C)CCOc1ccc(-n2ccnc(NCCOc3ccccc3)c2=O)cc1OC
III. COc1cc(-n2ccnc(NCCOc3ccccc3)c2=O)ccc1N1CCC(N(C)C(=O)C(C)C)C1 (centres unmarked)
IV. COc1cc(-n2ccnc(NCCc3cccc(Br)c3)c2=O)ccc1OCCN1CCCC1
V. CC(C)(C)OC(=O)N1CCN(c2ccc(-n3ccnc(NCCc4ccccc4)c3=O)cc2)CC1
*Q* Hey, quick one: sort these by IC50, low to high? Please list the labels in the order you were asked to rank them.
*A* IV, II, III, I, V

1. COc1cc(-n2ccnc(NCCc3ccccc3)c2=O)ccc1OCCCN1CCC(O)C1 (centres unmarked)
2. COc1cc(-n2ccnc(SCCc3ccccc3)c2=O)ccc1N1CCC(N2C(C)CCCC2C)C1 (centres unmarked)
3. COc1cc(-n2ccnc(N3CCCC(c4ccc(F)cc4)C3)c2=O)ccc1OCCN1CCCC1 (centres unmarked)
*Q* Please produce an ascending ranking of these compounds based on IC50. A complete answer lists every label in the requested sequence.
*A* 2, 1, 3

1. COc1cc(-n2ccnc(NCCc3ccccc3)c2=O)ccc1N1CCC(N(C)C)C1 (centres unmarked)
2. O=C1CCC(=O)N1CCOc1ccc(-n2ccnc(NCCOc3ccccc3)c2=O)cc1
*Q* Please indicate which entry, 1 or 2 , has the lower recorded IC50 value. # answer = label of selected item
*A* 1
(1: 0.0501 µM, 2: 0.1 µM)

1. COc1cc(-n2ccnc(NCCc3ccccc3)c2=O)ccc1NC1CCN(C)C1 (centres unmarked)
2. COc1cccc(C2CCN(c3nccn(-c4ccc(OCCN5CCCC5)c(OC)c4)c3=O)C2)c1 (centres unmarked)
3. COc1cc(-n2ccnc(NCCCOc3cccc(Cl)c3)c2=O)ccc1OCCN1CCCC1
*Q* Sequence the entries by IC50, beginning with the highest number. Form entry: labels listed in requested order.
*A* 2, 1, 3
(2: 0.631 µM, 1: 0.0631 µM, 3: 0.0251 µM)

----------
# system: human MCH-1 receptor (Homo sapiens, UniProt Q99705)
# Construct: expressed in transfected cells
# Sequence (Q99705 whole entry): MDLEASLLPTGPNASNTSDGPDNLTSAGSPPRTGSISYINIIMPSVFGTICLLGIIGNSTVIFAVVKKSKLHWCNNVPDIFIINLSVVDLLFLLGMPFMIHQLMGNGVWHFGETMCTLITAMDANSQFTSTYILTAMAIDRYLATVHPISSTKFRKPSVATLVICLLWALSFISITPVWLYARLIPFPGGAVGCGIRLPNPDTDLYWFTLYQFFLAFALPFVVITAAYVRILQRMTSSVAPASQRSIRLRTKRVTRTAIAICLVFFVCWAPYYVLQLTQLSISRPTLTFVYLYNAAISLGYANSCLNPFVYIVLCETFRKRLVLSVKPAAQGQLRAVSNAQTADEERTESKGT
# assay_details: Ca2+ mobilization experiment for the MCH-1 receptor (FLIPR), inhibition of MCH-induced Ca2+ mobilization
# Assay type: cell-based
# condition_parameters: CHO cells stably expressing human MCH-1 receptor, inhibition of MCH-induced Ca2+ response, read-out: MCH-1 pIC50 (converted)
reported_endpoint: IC50 (nM)

Record CNC1CCN(c2ccc(-n3ccnc(NCCc4ccccc4)c3=O)cc2)C1 (centres unmarked) . Reported IC50: 50.1

a. COc1cc(-n2ccnc(NCCOc3cccc(Cl)c3)c2=O)ccc1OCCN1CCCC1
b. COCCN1CCN(c2ccc(-n3ccnc(NCCc4ccccc4)c3=O)cc2Cl)CC1
c. COc1cc(-n2ccnc(NCCc3ccc(Cl)cc3Cl)c2=O)ccc1OCCN1CCCC1
d. COCCN(C)CCOc1ccc(-n2ccnc(NCCOc3ccccc3)c2=O)cc1
*Q* Order each entry by recorded IC50, climbing from the minimum. Answer format: list of labels, ordered as asked.
*A* a, b, c, d
(a: 50.1 nM, b: 79.4 nM, c: 200 nM, d: 1580 nM)
